B1: ZNF649 (parent)
chain: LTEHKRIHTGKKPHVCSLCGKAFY

Variants of: B1
testMethodNotes: protein stability index of a GFP-peptide fusion (GPS, HEK-293T) (PSI 1-6); higher = more stable;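 note: lentivirally expressed fusions sorted by FACS into six bins by GFP to DsRed ratio, PSI derived from sequencing read proportions per bin multiplied by bin number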
conditionParameters: c terminus: a fixed tail appended
measuredAttribute: protein stability index

F23C    3.07
H8A    2.86

For the next question, use this variant.
Name the reported protein stability index value associated with the variant H4S
2.58
